Value source: ChEMBL document CHEMBL1649165

test system: Trichoderma; assay: Antimicrobial activity against Trichoderma spp. by broth microdilution method; format: functional
*1 amine or outer side, *2 acyl side, *3 side chain or, on linkers, in order; H or OH if unused. Where a SMILES comes first, the peptide text is derived from it. Bridges are numbered along the chain shown (N, C = ends). [ ]: non-standard residue; d: D form. The star is where a group is joined. hTyr(3S-OH,4S-OH,3'-OSO3H) = N[C@H](C(=O)O)[C@H](O)[C@@H](O)c1ccc(O)c(OS(=O)(=O)O)c1; Orn(4R-OH,5R-OH) = O=C([C@H](C[C@@H](O)[C@@H](O)N[*:3])N[*:1])[*:2]; Pro(3S-OH,4S-Me) = C[C@H]1CN[C@H](C(=O)O)[C@H]1O; X1 = CCCCCOc1ccc(-c2cc(-c3ccc(C(=O)*)cc3)no2)cc1; Gln(3R-OH) = NC(=O)C[C@@H](O)[C@H](N)C(=O)O; Hyp = O=C(O)[C@@H]1C[C@@H](O)CN1
Observation type: MIC50

compound="CCC(C)n1ncn(-c2ccc(N3CCN(c4ccc(OCC5COC(Cn6cncn6)(c6ccc(Cl)cc6Cl)O5)cc4)CC3)cc2)c1=O (centres undefined) [ITRACONAZOLE]" reported_value="> 8 µg/mL"
compound="CC[C@H](C)C[C@H](C)CCCCCCCCC(=O)N[C@H]1C[C@@H](O)[C@@H](NCCN)NC(=O)[C@@H]2[C@@H](O)CCN2C(=O)[C@H]([C@H](O)CCN)NC(=O)[C@H]([C@H](O)[C@@H](O)c2ccc(O)cc2)NC(=O)[C@@H]2C[C@@H](O)CN2C(=O)[C@H]([C@@H](C)O)NC1=O [CASPOFUNGIN]" reported_value="> 16 µg/mL"
compound="CCCCCOc1ccc(-c2cc(-c3ccc(C(=O)N[C@H]4C[C@@H](O)[C@@H](O)NC(=O)[C@@H]5[C@@H](O)[C@@H](C)CN5C(=O)[C@H]([C@H](O)CC(N)=O)NC(=O)[C@H]([C@H](O)[C@@H](O)c5ccc(O)c(OS(=O)(=O)O)c5)NC(=O)[C@@H]5C[C@@H](O)CN5C(=O)[C@H]([C@@H](C)O)NC4=O)cc3)no2)cc1 [MICAFUNGIN] (X1-[Orn(4R-OH,5R-OH)]T[Hyp][hTyr(3S-OH,4S-OH,3'-OSO3H)][Gln(3R-OH)][Pro(3S-OH,4S-Me)]; lactam 1-C)" reported_value="> 16 µg/mL"
compound="C[C@@H](c1ncncc1F)[C@](O)(Cn1cncn1)c1ccc(F)cc1F [VORICONAZOLE]" reported_value="4 µg/mL"

###

test system: Cladophialophora bantiana; test: Antimicrobial activity against Cladophialophora bantiana by broth microdilution method; type: functional
*1 amine or outer side, *2 acyl side, *3 side chain or, on linkers, in order; H or OH if unused. Where a SMILES comes first, the peptide text is derived from it. Bridges are numbered along the chain shown (N, C = ends). [ ]: non-standard residue; d: D form. The star is where a group is joined. pTerphenylCO(4''-OnC5H11) = CCCCCOc1ccc(-c2ccc(-c3ccc(C(=O)*)cc3)cc2)cc1; Orn(4R-OH,5R-OH) = O=C([C@H](C[C@@H](O)[C@@H](O)N[*:3])N[*:1])[*:2]; hTyr(3S-OH,4S-OH) = N[C@H](C(=O)O)[C@H](O)[C@@H](O)c1ccc(O)cc1; Pro(3S-OH,4S-Me) = C[C@H]1CN[C@H](C(=O)O)[C@H]1O; Hyp = O=C(O)[C@@H]1C[C@@H](O)CN1
Overview of recorded MIC50 for various compounds
Observation type: MIC50

compound="CCC(C)n1ncn(-c2ccc(N3CCN(c4ccc(OCC5COC(Cn6cncn6)(c6ccc(Cl)cc6Cl)O5)cc4)CC3)cc2)c1=O (stereo not given) [ITRACONAZOLE]" observation_type=MIC50 reported_value="0.12 µg/mL"
compound="CC[C@@H]([C@H](C)O)n1ncn(-c2ccc(N3CCN(c4ccc(OC[C@@H]5CO[C@@](Cn6cncn6)(c6ccc(F)cc6F)C5)cc4)CC3)cc2)c1=O [POSACONAZOLE]" observation_type=MIC50 reported_value="0.06 µg/mL"
compound="CCCCCOc1ccc(-c2ccc(-c3ccc(C(=O)N[C@H]4C[C@@H](O)[C@@H](O)NC(=O)[C@@H]5[C@@H](O)[C@@H](C)CN5C(=O)[C@H]([C@@H](C)O)NC(=O)[C@H]([C@H](O)[C@@H](O)c5ccc(O)cc5)NC(=O)[C@@H]5C[C@@H](O)CN5C(=O)[C@H]([C@@H](C)O)NC4=O)cc3)cc2)cc1 [ANIDULAFUNGIN] ({pTerphenylCO(4''-OnC5H11)}-[Orn(4R-OH,5R-OH)]T[Hyp][hTyr(3S-OH,4S-OH)]T[Pro(3S-OH,4S-Me)]; lactam 1-C)" observation_type=MIC50 reported_value="0.03 µg/mL"
compound="CC[C@H](C)C[C@H](C)CCCCCCCCC(=O)N[C@H]1C[C@@H](O)[C@@H](NCCN)NC(=O)[C@@H]2[C@@H](O)CCN2C(=O)[C@H]([C@H](O)CCN)NC(=O)[C@H]([C@H](O)[C@@H](O)c2ccc(O)cc2)NC(=O)[C@@H]2C[C@@H](O)CN2C(=O)[C@H]([C@@H](C)O)NC1=O [CASPOFUNGIN]" observation_type=MIC50 reported_value="0.25 µg/mL"
compound="C[C@@H]1[C@H](O)[C@@H](C)/C=C/C=C/C=C/C=C/C=C/C=C/C=C/[C@H](O[C@@H]2O[C@H](C)[C@@H](O)[C@H](N)[C@@H]2O)C[C@@H]2O[C@](O)(C[C@@H](O)C[C@@H](O)[C@H](O)CC[C@@H](O)C[C@@H](O)CC(=O)O[C@H]1C)C[C@H](O)[C@H]2C(=O)O [AMPHOTERICIN B]" observation_type=MIC50 reported_value="0.25 µg/mL"

###

Below, each entry is listed alongside its reported MIC90.
system: Candida tropicalis; test: Antimicrobial activity against Candida tropicalis by broth microdilution method; type: functional
*1 amine or outer side, *2 acyl side, *3 side chain or, on linkers, in order; H or OH if unused. Where a SMILES comes first, the peptide text is derived from it. Bridges are numbered along the chain shown (N, C = ends). [ ]: non-standard residue; d: D form. The star is where a group is joined. hTyr(3S-OH,4S-OH,3'-OSO3H) = N[C@H](C(=O)O)[C@H](O)[C@@H](O)c1ccc(O)c(OS(=O)(=O)O)c1; Orn(4R-OH,5R-OH) = O=C([C@H](C[C@@H](O)[C@@H](O)N[*:3])N[*:1])[*:2]; Pro(3S-OH,4S-Me) = C[C@H]1CN[C@H](C(=O)O)[C@H]1O; X1 = CCCCCOc1ccc(-c2cc(-c3ccc(C(=O)*)cc3)no2)cc1; Gln(3R-OH) = NC(=O)C[C@@H](O)[C@H](N)C(=O)O; Hyp = O=C(O)[C@@H]1C[C@@H](O)CN1
Observation type: MIC90 (µg/mL)

compound="CC[C@@H]([C@H](C)O)n1ncn(-c2ccc(N3CCN(c4ccc(OC[C@@H]5CO[C@@](Cn6cncn6)(c6ccc(F)cc6F)C5)cc4)CC3)cc2)c1=O [POSACONAZOLE]" reported_value=0.03
compound="C[C@@H]1[C@H](O)[C@@H](C)/C=C/C=C/C=C/C=C/C=C/C=C/C=C/[C@H](O[C@@H]2O[C@H](C)[C@@H](O)[C@H](N)[C@@H]2O)C[C@@H]2O[C@](O)(C[C@@H](O)C[C@@H](O)[C@H](O)CC[C@@H](O)C[C@@H](O)CC(=O)O[C@H]1C)C[C@H](O)[C@H]2C(=O)O [AMPHOTERICIN B]" reported_value=0.25
compound="CCCCCOc1ccc(-c2cc(-c3ccc(C(=O)N[C@H]4C[C@@H](O)[C@@H](O)NC(=O)[C@@H]5[C@@H](O)[C@@H](C)CN5C(=O)[C@H]([C@H](O)CC(N)=O)NC(=O)[C@H]([C@H](O)[C@@H](O)c5ccc(O)c(OS(=O)(=O)O)c5)NC(=O)[C@@H]5C[C@@H](O)CN5C(=O)[C@H]([C@@H](C)O)NC4=O)cc3)no2)cc1 [MICAFUNGIN] (X1-[Orn(4R-OH,5R-OH)]T[Hyp][hTyr(3S-OH,4S-OH,3'-OSO3H)][Gln(3R-OH)][Pro(3S-OH,4S-Me)]; lactam 1-C)" reported_value=0.03

###

system: Scytalidium hyalinum; experiment: Antimicrobial activity against Scytalidium hyalinum by broth microdilution method; type: functional; settings: Neoscytalidium hyalinum
*1 amine or outer side, *2 acyl side, *3 side chain or, on linkers, in order; H or OH if unused. Where a SMILES comes first, the peptide text is derived from it. Bridges are numbered along the chain shown (N, C = ends). [ ]: non-standard residue; d: D form. The star is where a group is joined. hTyr(3S-OH,4S-OH,3'-OSO3H) = N[C@H](C(=O)O)[C@H](O)[C@@H](O)c1ccc(O)c(OS(=O)(=O)O)c1; pTerphenylCO(4''-OnC5H11) = CCCCCOc1ccc(-c2ccc(-c3ccc(C(=O)*)cc3)cc2)cc1; Orn(4R-OH,5R-OH) = O=C([C@H](C[C@@H](O)[C@@H](O)N[*:3])N[*:1])[*:2]; hTyr(3S-OH,4S-OH) = N[C@H](C(=O)O)[C@H](O)[C@@H](O)c1ccc(O)cc1; Pro(3S-OH,4S-Me) = C[C@H]1CN[C@H](C(=O)O)[C@H]1O; X1 = CCCCCOc1ccc(-c2cc(-c3ccc(C(=O)*)cc3)no2)cc1; Gln(3R-OH) = NC(=O)C[C@@H](O)[C@H](N)C(=O)O; Hyp = O=C(O)[C@@H]1C[C@@H](O)CN1
Observation type: MIC50 (µg/mL)

compound="CCCCCOc1ccc(-c2cc(-c3ccc(C(=O)N[C@H]4C[C@@H](O)[C@@H](O)NC(=O)[C@@H]5[C@@H](O)[C@@H](C)CN5C(=O)[C@H]([C@H](O)CC(N)=O)NC(=O)[C@H]([C@H](O)[C@@H](O)c5ccc(O)c(OS(=O)(=O)O)c5)NC(=O)[C@@H]5C[C@@H](O)CN5C(=O)[C@H]([C@@H](C)O)NC4=O)cc3)no2)cc1 [MICAFUNGIN] (X1-[Orn(4R-OH,5R-OH)]T[Hyp][hTyr(3S-OH,4S-OH,3'-OSO3H)][Gln(3R-OH)][Pro(3S-OH,4S-Me)]; lactam 1-C)" result_units=µg/mL reported_value=0.03
compound=CC[C@@H]([C@H](C)O)n1ncn(-c2ccc(N3CCN(c4ccc(OC[C@@H]5CO[C@@](Cn6cncn6)(c6ccc(F)cc6F)C5)cc4)CC3)cc2)c1=O result_units=µg/mL reported_value=0.06
compound="CCCCCOc1ccc(-c2ccc(-c3ccc(C(=O)N[C@H]4C[C@@H](O)[C@@H](O)NC(=O)[C@@H]5[C@@H](O)[C@@H](C)CN5C(=O)[C@H]([C@@H](C)O)NC(=O)[C@H]([C@H](O)[C@@H](O)c5ccc(O)cc5)NC(=O)[C@@H]5C[C@@H](O)CN5C(=O)[C@H]([C@@H](C)O)NC4=O)cc3)cc2)cc1 [ANIDULAFUNGIN] ({pTerphenylCO(4''-OnC5H11)}-[Orn(4R-OH,5R-OH)]T[Hyp][hTyr(3S-OH,4S-OH)]T[Pro(3S-OH,4S-Me)]; lactam 1-C)" result_units=µg/mL reported_value=0.03
